assay: in vitro; conditions: CD1, mouse, liver microsomes
Description: Metabolic stability in CD1 mouse liver microsomes assessed as compound remaining after 1 hr
As shown below, each of these molecules has a reported remaining at 1 h value.
State just the number; it will be interpreted in %.

Solved entries:
>>> measured_result("O=[N+]([O-])c1cn2c(n1)OC[C@@H](OCc1ccc(-c3ccc(F)nc3)cc1)C2")
79
>>> measured_result("O=[N+]([O-])c1cn2c(n1)OC[C@@H](OCc1ccc(-c3ccc(F)cc3)nc1)C2")
80

Alright, here's another molecule for you.
Enquiry: Looking for the measured remaining at 1 h of O=[N+]([O-])c1cn2c(n1)OC[C@@H](OCc1ccc(-c3ncc(C(F)(F)F)cc3Cl)cc1)C2 , can you help?
Return: 80

----------
assay: physchem; conditions: water, pH 1
Description: Solubility of the compound in water at pH 1.0 by HPLC
The entries below are paired with their reported solubility.
The figure you give is taken to be in µg/mL; do not add the unit.

Some solved entries appear below for comparison.
>>> measured_result("O=[N+]([O-])c1cn2c(n1)OC[C@@H](OCc1ccc(-c3ccc(OC(F)(F)F)c(F)c3)nc1)C2")
71
>>> measured_result("O=[N+]([O-])c1cn2c(n1)OC[C@@H](OCc1ncc(-c3ccc(OC(F)(F)F)cc3)cn1)C2")
5.1

Please find the next compound below.
Enquiry: So what does the record say about solubility for O=[N+]([O-])c1cn2c(n1)OC[C@@H](OCc1ccc(-c3ccc(C(F)(F)F)cn3)cc1)C2 ?
Return: 5.1

Just for reference, ChEMBL document CHEMBL1629541 is where these values come from.
